target: HGFR (Homo sapiens, UniProt P08581); construct: purchased Upstate 14-526; assay: HGFR continuous-coupled spectrophotometric assay; format: biochemical; conditions: at 50 nM; Table 5, library procedure 40; read-out: % inhibition (percent c-MET inhibition)
Sequence (P08581 974-1390 limits assumed): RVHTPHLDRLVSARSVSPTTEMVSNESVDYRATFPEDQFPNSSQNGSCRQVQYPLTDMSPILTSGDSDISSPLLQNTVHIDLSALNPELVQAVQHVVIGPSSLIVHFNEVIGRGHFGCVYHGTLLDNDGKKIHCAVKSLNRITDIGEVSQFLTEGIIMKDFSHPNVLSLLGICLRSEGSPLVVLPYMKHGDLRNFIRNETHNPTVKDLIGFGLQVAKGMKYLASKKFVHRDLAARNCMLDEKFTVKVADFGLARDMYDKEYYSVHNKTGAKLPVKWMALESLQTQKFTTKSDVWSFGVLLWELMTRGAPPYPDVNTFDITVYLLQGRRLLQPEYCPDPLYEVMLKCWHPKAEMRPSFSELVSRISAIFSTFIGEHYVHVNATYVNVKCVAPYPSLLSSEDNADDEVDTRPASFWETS
QUANTITY MEASURED: inhibition at 0.05 µM (%)
Dear colleague, please return just the value in %, with no unit written.

Sample records with inhibition at 0.05 µM:
{"COMPOUND": "CC(Oc1cc(-c2ccc(C(=O)NCC(C)(C)C)cc2)cnc1N)c1c(Cl)ccc(F)c1Cl (stereo not shown)", "QUANTITY MEASURED": "inhibition at 0.05 µM", "OBSERVED RESULT": 62}
{"COMPOUND": "CC(Oc1cc(-c2ccc(C(=O)NCCN3[C@H](C)CCC[C@@H]3C)cc2)cnc1N)c1c(Cl)ccc(F)c1Cl (stereo partly shown)", "QUANTITY MEASURED": "inhibition at 0.05 µM", "OBSERVED RESULT": 77}
{"COMPOUND": "COc1cc(CNC(=O)c2ccc(-c3cnc(N)c(OC(C)c4c(Cl)ccc(F)c4Cl)c3)cc2)cc(OC)c1 (stereo not shown)", "QUANTITY MEASURED": "inhibition at 0.05 µM", "OBSERVED RESULT": 57}

Shifting focus to the compound that follows.
Asked: # inhibition at 0.05 µM lookup, item CC(Oc1cc(-c2ccc(C(=O)NCCc3ccccn3)cc2)cnc1N)c1c(Cl)ccc(F)c1Cl (stereo not shown)
Given back: 67

* * *

biological target: Met kinase domain (GST fusion protein) (Homo sapiens); construct: Purified GST fusion protein containing the Met kinase domain; experiment: Met transphosphorylation assay (ELISA, poly(glu-tyr) substrate); assay type: biochemical; conditions: Table 2; read-out: Met IC50
Lab note: cut-off is 100 nM. Strictly less in IC50 is 1. Exactly 100 nM or more is 0.

Study these solved cases before continuing.
{"COMPOUND": "Nc1ncc(-c2ccc(C(=O)NCCN3CCCC3)cc2)cc1OCc1c(F)ccc(F)c1Cl", "GROUP LABEL": 0}
{"COMPOUND": "CC(Oc1cc(-c2cccc(C(=O)N3CCC[C@H]3CN3CCCC3)c2)cnc1N)c1c(F)ccc(F)c1Cl (stereo partly shown)", "GROUP LABEL": 0}
{"COMPOUND": "CC(Oc1cc(-c2cccc(C(=O)NCCCN3CCCC3)c2)cnc1N)c1c(Cl)ccc(F)c1Cl (stereo not shown)", "GROUP LABEL": 0}
{"COMPOUND": "CC(Oc1cc(-c2ccc(C(=O)NCCN3CCOCC3)cc2)cnc1N)c1c(F)ccc(F)c1Cl (stereo not shown)", "GROUP LABEL": 0}
{"COMPOUND": "Nc1ncc(-c2cccc(NS(=O)(=O)CCN3CCC(O)CC3)c2)cc1OCc1c(F)ccc(F)c1Cl", "GROUP LABEL": 0}

Could you now consider this next compound?
Asked: For this compound, is IC50 lower than 100 nM? CC(Oc1cc(-c2cccc(C(=O)NC3CCN(C)CC3)c2)cnc1N)c1c(Cl)ccc(F)c1Cl (stereo not shown)
Given back: 1

* * *

molecular target: Met kinase domain (GST fusion protein) (Homo sapiens, UniProt P08581); construct: Purified GST fusion protein containing the Met kinase domain; assay: Met transphosphorylation assay (ELISA, poly(glu-tyr) substrate); assay type: biochemical; settings: plain numbers in column Met IC50 (μM) of Table 2; read-out: Met IC50;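 also: Cell-free ELISA with plate-bound poly(Glu:Tyr 4:1) phosphorylated by GST-fused Met kinase domain plus ATP and Mn2+, phosphotyrosine detected by anti-phosphotyrosine antibody with HRP and ABTS read-out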
Sequence (P08581 1078-1345 limits assumed): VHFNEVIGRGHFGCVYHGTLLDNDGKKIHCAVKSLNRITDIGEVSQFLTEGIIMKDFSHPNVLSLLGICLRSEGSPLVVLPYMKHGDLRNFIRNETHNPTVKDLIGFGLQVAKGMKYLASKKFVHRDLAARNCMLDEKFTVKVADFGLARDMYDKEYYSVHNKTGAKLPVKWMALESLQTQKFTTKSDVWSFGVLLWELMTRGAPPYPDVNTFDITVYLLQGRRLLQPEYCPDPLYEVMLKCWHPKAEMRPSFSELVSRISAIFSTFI
QUANTITY MEASURED: log10 of IC50 (log10 of the value in µM)
Base-10 log of IC50, unit µM.

{"COMPOUND": "CC(Oc1cc(C#CCNC(=O)CN2CC[C@@H](O)C2)cnc1N)c1c(Cl)ccc(F)c1Cl (some centres unmarked)", "TGT": "Met kinase domain (GST fusion protein) (Homo sapiens, UniProt P08581)", "log10 of IC50": -1.96}
{"COMPOUND": "CC(C)COc1cnc(N)c(OC(C)c2c(F)ccc(F)c2Cl)c1 (centres unmarked)", "TGT": "Met kinase domain (GST fusion protein) (Homo sapiens, UniProt P08581)", "log10 of IC50": 0.08}
{"COMPOUND": "CC(Oc1cc(-c2ccc(C(=O)N3CCC(N4CCCC4)CC3)cc2)cnc1N)c1c(Cl)cccc1Cl (centres unmarked)", "TGT": "Met kinase domain (GST fusion protein) (Homo sapiens, UniProt P08581)", "log10 of IC50": -1.26}
{"COMPOUND": "CC(Oc1cc(C#CCNC(N)=O)cnc1N)c1c(Cl)ccc(F)c1Cl (centres unmarked)", "TGT": "Met kinase domain (GST fusion protein) (Homo sapiens, UniProt P08581)", "log10 of IC50": -1.21}
{"COMPOUND": "CC(=O)N1CCN(CCNC(=O)c2cccc(-c3cnc(N)c(OC(C)c4c(Cl)cccc4Cl)c3)c2)CC1 (centres unmarked)", "TGT": "Met kinase domain (GST fusion protein) (Homo sapiens, UniProt P08581)", "log10 of IC50": -1.10}

Asked: Which log10 of IC50 value belongs to CC(Oc1cc(-c2ccc(C(=O)N3C[C@@H](C)N[C@@H](C)C3)cc2)cnc1N)c1c(Cl)cccc1Cl (some centres unmarked) ?
Given back: -1.28

Asked: Which log10 of IC50 value is on record for Nc1ncc(-c2ccccn2)cc1OCc1c(F)ccc(F)c1Cl ?
Given back: 0.26

* * *

Below, each entry is listed alongside its reported inhibition at 1 pM.
biological target: HGFR (Homo sapiens); construct: purchased Upstate 14-526; assay: HGFR continuous-coupled spectrophotometric assay; format: biochemical; details: at 1 pM; Table 6, library procedure 41; read-out: % Inhibition (percent c-MET inhibition)
Quick note: give the figure in %, leave out the unit.

Example entries begin here.
{"MOLECULE": "CCCN(CCO)C1CCCN(C(=O)c2cnc(N)c(OCc3c(Cl)cccc3Cl)c2)CC1 (stereo not shown)", "TGT": "HGFR (Homo sapiens)", "OBSERVED RESULT": 17}
{"MOLECULE": "CN(CC(N)=O)C(=O)c1cnc(N)c(OCc2c(Cl)cccc2Cl)c1", "TGT": "HGFR (Homo sapiens)", "OBSERVED RESULT": 39}
{"MOLECULE": "Nc1ncc(C(=O)N2CCC3(CC2)COC(CCc2ccnnc2)C3)cc1OCc1c(Cl)cccc1Cl (stereo not shown)", "TGT": "HGFR (Homo sapiens)", "OBSERVED RESULT": 37}

API: the following record is the query input.
Asked: Quick one: inhibition at 1 pM for N#CCCN1CCN(C(=O)c2cnc(N)c(OCc3c(Cl)cccc3Cl)c2)CC1 ?
Given back: 19

* * *

target: HGFR (Homo sapiens); construct: purchased Upstate 14-526; test: HGFR continuous-coupled spectrophotometric assay; assay type: biochemical; conditions: at 50 nM; Table 5, library procedure 40; read-out: % inhibition (percent c-MET inhibition)
QUANTITY MEASURED: inhibition at 0.05 µM (%)
Give your result in % as a bare value.

{"COMPOUND": "CC(Oc1cc(-c2ccc(C(=O)NCC3CC3)cc2)cnc1N)c1c(Cl)ccc(F)c1Cl [Example L-122]", "UNIT LABEL": "%", "inhibition at 0.05 µM": 61}
{"COMPOUND": "C[C@H](Oc1cc(-c2ccc(C(=O)N3CCCC[C@@H]3CCO)cc2)cnc1N)c1c(Cl)ccc(F)c1Cl [Example L-47]", "UNIT LABEL": "%", "inhibition at 0.05 µM": 83}
{"COMPOUND": "CC(C)CN(C)C(=O)c1ccc(-c2cnc(N)c(OC(C)c3c(Cl)ccc(F)c3Cl)c2)cc1 [Example L-143]", "UNIT LABEL": "%", "inhibition at 0.05 µM": 59}
{"COMPOUND": "CC(Oc1cc(-c2ccc(C(=O)NC3CCN(Cc4ccccc4)C3)cc2)cnc1N)c1c(Cl)ccc(F)c1Cl [Example L-17]", "UNIT LABEL": "%", "inhibition at 0.05 µM": 76}
{"COMPOUND": "CC(Oc1cc(-c2ccc(C(=O)NCCCc3c[nH]nc3O)cc2)cnc1N)c1c(Cl)ccc(F)c1Cl [Example L-150]", "UNIT LABEL": "%", "inhibition at 0.05 µM": 81}

Asked: // returns reported inhibition at 0.05 µM for input CC(=O)N[C@@H]1CCN(C(=O)c2ccc(-c3cnc(N)c(OC(C)c4c(Cl)ccc(F)c4Cl)c3)cc2)C1 (stereo partly drawn) [Example L-107]
Given back: 87

Asked: Could you tell me which inhibition at 0.05 µM is on file for CC(Oc1cc(-c2ccc(C(=O)N(C)C3CCCC3)cc2)cnc1N)c1c(Cl)ccc(F)c1Cl [Example L-130] ?
Given back: 60

Asked: # lookup: inhibition at 0.05 µM of CC(Oc1cc(-c2ccc(C(=O)N3CCN(CC(=O)N4CCCC4)CC3)cc2)cnc1N)c1c(Cl)ccc(F)c1Cl [Example L-46]
Given back: 78

Asked: Need inhibition at 0.05 µM, item CC(Oc1cc(-c2ccc(C(=O)NCC3(O)CCCCC3)cc2)cnc1N)c1c(Cl)ccc(F)c1Cl [Example L-59]
Given back: 81

Asked: Reported inhibition at 0.05 µM, compound CC(Oc1cc(-c2ccc(C(=O)N3CCN(CCCO)CC3)cc2)cnc1N)c1c(Cl)ccc(F)c1Cl [Example L-49] : ____
Given back: 74
